Listed here: items and their measured viability, T/C.
# Tested on: K86415-001-R-J1-PDC complex spheroids, viability;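 note: spheroids exposed to agents for seven days before readout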
# experiment notes: Anticancer human tumor K86415-001-R-J1-PDC patient-derived lung adenocarcinoma cell line growth inhibition [RAS]
# experimental parameters: second compound 0.03 µM; first compound 3.16 µM; hits give low values
endpoint label: viability, T/C (%)

NC1c2ccccc2OC12CCN(c1cnc3c(N4CCCc5ncccc54)n[nH]c3n1)CC2 (stereo not drawn) + CCn1c(-c2cc(N3CCN(C)CC3)cnc2C(C)OC)c2c3cc(ccc31)-c1csc(n1)CC(NC(=O)C1CC1C)C(=O)N1CCCC(N1)C(=O)OCC(C)(C)C2 ... 3.67
CC(C)NCC(C(=O)N1CCN(c2ncnc3c2C(C)CC3O)CC1)c1ccc(Cl)cc1 (stereo not drawn) + CCn1c(-c2cc(N3CCN(C)CC3)cnc2C(C)OC)c2c3cc(ccc31)-c1csc(n1)CC(NC(=O)C1CC1C)C(=O)N1CCCC(N1)C(=O)OCC(C)(C)C2 ... 0.66
CC(=O)OC12COC1CC(O)C1(C)C(=O)C(O)C3=C(C)C(OC(=O)C(O)C(NC(=O)OC(C)(C)C)c4ccccc4)CC(O)(C(OC(=O)c4ccccc4)C21)C3(C)C (stereo not drawn) + CCn1c(-c2cc(N3CCN(C)CC3)cnc2C(C)OC)c2c3cc(ccc31)-c1csc(n1)CC(NC(=O)C1CC1C)C(=O)N1CCCC(N1)C(=O)OCC(C)(C)C2 ... 2.48

These data points were gathered from PubChem BioAssay AID2060893.
